Molecular target: FXIa (Homo sapiens, UniProt P03951)
Sequence (P03951 388-625 limits assumed): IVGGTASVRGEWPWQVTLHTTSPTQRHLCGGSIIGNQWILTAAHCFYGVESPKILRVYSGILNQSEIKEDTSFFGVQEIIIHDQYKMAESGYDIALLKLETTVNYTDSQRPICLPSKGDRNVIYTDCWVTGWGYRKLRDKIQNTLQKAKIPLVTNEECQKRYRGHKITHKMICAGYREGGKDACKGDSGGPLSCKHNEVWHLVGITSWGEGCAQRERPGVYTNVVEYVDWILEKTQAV
Sequence (P03951 19-387 partner limits assumed): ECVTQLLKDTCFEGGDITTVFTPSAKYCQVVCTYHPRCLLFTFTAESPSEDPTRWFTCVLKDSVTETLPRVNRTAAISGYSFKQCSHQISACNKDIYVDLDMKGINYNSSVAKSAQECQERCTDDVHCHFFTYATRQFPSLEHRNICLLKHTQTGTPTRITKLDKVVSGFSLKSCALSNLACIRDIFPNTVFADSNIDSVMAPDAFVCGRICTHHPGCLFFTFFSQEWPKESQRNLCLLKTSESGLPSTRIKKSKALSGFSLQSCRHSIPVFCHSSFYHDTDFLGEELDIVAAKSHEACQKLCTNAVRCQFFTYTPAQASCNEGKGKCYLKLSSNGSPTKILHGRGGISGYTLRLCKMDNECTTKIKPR
Test: Time-dependent potency determination against FXIa
Format: biochemical
Details: 60 min preincubation
Source text: S5: Pharmacology: Material and Methods :
Catalogue of molecules with associated IC50

• O=C(NCc1cccc(Cl)c1)c1cnn(Cc2ccc(Cn3cccn3)cc2)c1 = > 40 µM

Look up IC50: CC1(C)OB(C(CC(=O)c2cnn(Cc3ccc(Cn4cccn4)cc3)c2)c2cccc(Cl)c2)OC1(C)C (stereo not drawn)
> 40 µM

Follow-up item: Cc1ccc(C(CC(=O)c2cnn(Cc3ccc(Cn4cccn4)cc3)c2)B2OC(C)(C)C(C)(C)O2)c(F)c1 (stereo not drawn)
> 40 µM

Would you mind doing CC1(C)OB(C(NC(=O)c2cnn(Cc3ccc(Cn4cccn4)cc3)c2)c2cccc(Cl)c2)OC1(C)C (stereo not drawn) as well?
> 40 µM

Then this molecule: Cc1ccc(CNC(=O)c2cnn(Cc3ccc(Cn4cccn4)cc3)c2)c(F)c1
> 40 µM

What about this molecule? Cc1ccc(C(NC(=O)c2cnn(Cc3ccc(Cn4cccn4)cc3)c2)B2OC(C)(C)C(C)(C)O2)c(F)c1 (stereo not drawn)
12.2 µM

---

Target: plasma kallikrein (PKa) (Homo sapiens)
Sequence (P03952 391-638 limits assumed): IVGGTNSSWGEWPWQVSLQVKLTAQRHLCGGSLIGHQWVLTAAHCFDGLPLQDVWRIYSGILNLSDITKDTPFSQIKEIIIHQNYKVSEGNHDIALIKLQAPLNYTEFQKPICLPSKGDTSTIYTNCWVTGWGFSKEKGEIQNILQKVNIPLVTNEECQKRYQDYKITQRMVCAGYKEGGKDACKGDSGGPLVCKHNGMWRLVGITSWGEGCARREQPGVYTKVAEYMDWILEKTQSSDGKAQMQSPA
Sequence (P03952 20-390 partner limits assumed): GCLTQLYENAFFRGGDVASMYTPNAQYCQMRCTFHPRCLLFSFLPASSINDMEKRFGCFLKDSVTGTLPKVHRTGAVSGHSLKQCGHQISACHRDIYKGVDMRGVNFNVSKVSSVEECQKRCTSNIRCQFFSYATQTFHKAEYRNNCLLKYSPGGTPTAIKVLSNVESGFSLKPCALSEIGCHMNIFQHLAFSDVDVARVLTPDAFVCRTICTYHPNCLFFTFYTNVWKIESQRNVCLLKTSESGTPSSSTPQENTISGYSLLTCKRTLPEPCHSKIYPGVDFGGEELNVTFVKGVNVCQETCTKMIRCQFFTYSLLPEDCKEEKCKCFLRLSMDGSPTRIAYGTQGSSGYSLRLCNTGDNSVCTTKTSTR
Assay: Isolated enzyme potency against PKa, IC50 after enzyme/inhibitor preincubation time course
Conditions: read-out: PKa IC50; 5 min preincubation
pIC50: −log10 of the molar value.
metricName: pIC50

• CC1(C)OB(C(N)c2cccc(Cl)c2)OC1(C)C.Cl (centres unmarked) [Compound 15a] = < 3.40

// below: pIC50 requested for another molecule
Fill in the blank: the reported pIC50 of O=C(NC(B(O)O)c1cccc(Cl)c1)c1cnn(Cc2ccccc2)c1 (centres unmarked) [Compound 18] is ____.
< 3.40

---

Tested on: Trypsin
Test: Time-dependent potency determination against trypsin
Conditions: read-out: Trypsin IC50; 10 min preincubation
metricName: IC50

* Cc1ccc(CNC(=O)c2cnn(Cc3ccc(Cn4cccn4)cc3)c2)c(F)c1 | > 40 µM

Which value of IC50 has been reported for O=C(NCc1cccc(Cl)c1)c1cnn(Cc2ccc(Cn3cccn3)cc2)c1 in the records?
> 40 µM

Param item: Cc1ccc(C(NC(=O)c2cnn(Cc3ccc(Cn4cccn4)cc3)c2)B2OC(C)(C)C(C)(C)O2)c(F)c1 (stereo not drawn)
> 40 µM

---

Biological target: Plasmin (Homo sapiens, UniProt P00747)
Sequence (P00747 581-810 limits assumed, species assumed): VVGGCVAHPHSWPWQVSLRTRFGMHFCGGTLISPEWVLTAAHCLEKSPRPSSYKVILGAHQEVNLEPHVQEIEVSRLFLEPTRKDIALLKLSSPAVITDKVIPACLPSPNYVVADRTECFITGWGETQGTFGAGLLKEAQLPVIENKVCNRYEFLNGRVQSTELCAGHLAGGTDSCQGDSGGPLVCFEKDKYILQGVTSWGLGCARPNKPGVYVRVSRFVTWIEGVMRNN
Sequence (P00747 97-580 partner limits assumed, species assumed): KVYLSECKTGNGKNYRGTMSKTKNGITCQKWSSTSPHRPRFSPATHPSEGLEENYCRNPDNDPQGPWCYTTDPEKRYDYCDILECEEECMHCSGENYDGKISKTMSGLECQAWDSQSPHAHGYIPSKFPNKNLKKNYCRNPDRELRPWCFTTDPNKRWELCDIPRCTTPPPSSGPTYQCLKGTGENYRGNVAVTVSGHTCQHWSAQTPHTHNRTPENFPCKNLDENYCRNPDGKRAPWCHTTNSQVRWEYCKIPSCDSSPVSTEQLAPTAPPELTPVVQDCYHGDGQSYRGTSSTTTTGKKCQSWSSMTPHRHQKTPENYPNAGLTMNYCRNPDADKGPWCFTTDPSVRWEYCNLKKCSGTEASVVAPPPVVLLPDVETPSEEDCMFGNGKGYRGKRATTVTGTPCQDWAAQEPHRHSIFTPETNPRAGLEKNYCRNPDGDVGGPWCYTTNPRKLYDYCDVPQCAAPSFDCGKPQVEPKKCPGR
Experiment: Time-dependent potency determination against plasmin
Settings: read-out: Plasmin IC50; 10 min preincubation
metricName: IC50 (µM)
Number only, in µM; omit the unit.

Field: IC50 (Plasmin (Homo sapiens, UniProt P00747)). Entry: D-Phe-Pro-Arg-chloromethylketone [Compound 23, reference compound]
1.22

src = paper PMC11017388
